- study.system: GST-tagged truncated human mutant G2019S LRRK2 (Homo sapiens (Human), UniProt Q5S007, G2019S)
- Sequence (Q5S007 970-2527 G2019S): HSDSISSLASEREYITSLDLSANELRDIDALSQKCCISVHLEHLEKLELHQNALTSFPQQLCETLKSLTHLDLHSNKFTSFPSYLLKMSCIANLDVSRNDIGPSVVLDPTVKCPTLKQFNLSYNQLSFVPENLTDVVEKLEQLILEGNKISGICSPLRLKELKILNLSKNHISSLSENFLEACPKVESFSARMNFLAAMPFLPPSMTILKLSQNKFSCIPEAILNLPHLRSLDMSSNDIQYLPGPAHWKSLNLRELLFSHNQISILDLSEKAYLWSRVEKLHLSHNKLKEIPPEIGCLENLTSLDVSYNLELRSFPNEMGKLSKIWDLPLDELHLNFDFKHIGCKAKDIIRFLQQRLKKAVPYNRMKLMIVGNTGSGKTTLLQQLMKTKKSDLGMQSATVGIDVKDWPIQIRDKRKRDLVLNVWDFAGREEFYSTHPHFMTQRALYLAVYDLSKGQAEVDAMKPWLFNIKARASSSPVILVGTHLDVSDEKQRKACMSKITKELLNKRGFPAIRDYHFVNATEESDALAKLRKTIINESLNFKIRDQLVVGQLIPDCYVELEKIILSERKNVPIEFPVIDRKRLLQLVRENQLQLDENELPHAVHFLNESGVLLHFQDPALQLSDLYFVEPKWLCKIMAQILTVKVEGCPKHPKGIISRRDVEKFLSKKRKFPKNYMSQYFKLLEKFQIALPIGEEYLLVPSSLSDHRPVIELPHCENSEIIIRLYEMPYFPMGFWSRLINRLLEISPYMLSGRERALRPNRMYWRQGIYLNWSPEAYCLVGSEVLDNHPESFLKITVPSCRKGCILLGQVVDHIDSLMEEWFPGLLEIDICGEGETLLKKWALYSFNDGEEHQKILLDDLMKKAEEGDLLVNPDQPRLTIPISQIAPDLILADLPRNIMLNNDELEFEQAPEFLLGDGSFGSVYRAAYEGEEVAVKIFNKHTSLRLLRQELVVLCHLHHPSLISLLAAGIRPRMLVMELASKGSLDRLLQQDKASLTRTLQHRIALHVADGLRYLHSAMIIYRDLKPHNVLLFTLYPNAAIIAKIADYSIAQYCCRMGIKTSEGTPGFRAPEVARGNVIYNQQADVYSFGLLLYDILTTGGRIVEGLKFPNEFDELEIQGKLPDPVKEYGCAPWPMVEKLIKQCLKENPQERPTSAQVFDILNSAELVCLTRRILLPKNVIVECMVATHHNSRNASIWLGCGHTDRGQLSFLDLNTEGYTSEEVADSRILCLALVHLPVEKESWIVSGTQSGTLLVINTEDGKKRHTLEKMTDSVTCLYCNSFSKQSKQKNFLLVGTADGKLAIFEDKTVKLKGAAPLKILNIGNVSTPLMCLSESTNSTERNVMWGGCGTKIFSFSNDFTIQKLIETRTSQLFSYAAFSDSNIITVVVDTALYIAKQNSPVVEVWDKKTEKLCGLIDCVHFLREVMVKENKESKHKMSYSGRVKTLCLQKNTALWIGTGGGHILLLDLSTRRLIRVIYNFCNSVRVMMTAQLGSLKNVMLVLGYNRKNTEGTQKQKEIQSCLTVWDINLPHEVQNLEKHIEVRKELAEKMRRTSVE
- experimental.protocol: LRRK2 G2019S Km ATP LanthaScreen assay
- Assay type: biochemical
- experimental.context: G2019S LRRK2, 134 μM ATP (Km ATP), LRRKtide substrate
- From the text: Unless otherwise noted, all reactions are magnetically allowed to stir, diethyl ether used in the experiments described below is Fisher ACS certified material stabilized with BHT, and “concentrated” and/or “solvent removed under reduced pressure” means evaporating the solvent from a solution or mixture using a rotary evaporator or vacuum pump. […]
Threshold rule: LRRK2 pIC50 greater than or equal to 7 is yes (1); below that, no (0).

Query :: Please indicate if the recorded LRRK2 pIC50 for Cc1nn(C(C)C)c2c1OC[C@@H]1CC[C@H]1Nc1cc(ncc1Cl)N2 meets or exceeds 7.
Result :: yes (1)

Query :: Has COC1CCC1n1nc(C)c2c1Nc1ncc(C(F)(F)F)c(n1)NC1COCC1CO2 (centres unmarked) [Ex-2.39] a recorded LRRK2 pIC50 greater than or equal to 7?
Result :: no (0)

From: patent US20250313575A1
